# testedOn: MAP3K10 (human)
# experiment: radiometric filter-binding kinase assay, Kinase HotSpot
# conditionLabel: compound 0.5 µM; ATP 10 µM
Lab note: anything with residual activity at or over 90% counts as Fulfilled; the rest go in Not fulfilled.

# compound, classLabel
data = [
    ("c1ccc(-c2n[nH]cc2-c2ccnc3ccccc23)nc1", "Fulfilled"),
]

Ask | Check if residual activity >= 90% (inclusive). Item: CNC(=O)c1cc(Oc2ccc(NC(=O)Nc3ccc(Cl)c(C(F)(F)F)c3)cc2)ccn1
Reply | Fulfilled

Ask | Check if residual activity >= 90% (inclusive). Item: CC#CC(=O)Nc1cc2c(Nc3ccc(F)c(Cl)c3)ncnc2cn1
Reply | Fulfilled

Ask | Check if residual activity >= 90% (inclusive). Item: CC(=O)c1ccc(N2CCOCC2)cc1O
Reply | Fulfilled

----------
# testedOn: CDK3 CCNE1 (human) (UniProt Q00526+P24864)
# Sequence (P24864 whole entry, looked up): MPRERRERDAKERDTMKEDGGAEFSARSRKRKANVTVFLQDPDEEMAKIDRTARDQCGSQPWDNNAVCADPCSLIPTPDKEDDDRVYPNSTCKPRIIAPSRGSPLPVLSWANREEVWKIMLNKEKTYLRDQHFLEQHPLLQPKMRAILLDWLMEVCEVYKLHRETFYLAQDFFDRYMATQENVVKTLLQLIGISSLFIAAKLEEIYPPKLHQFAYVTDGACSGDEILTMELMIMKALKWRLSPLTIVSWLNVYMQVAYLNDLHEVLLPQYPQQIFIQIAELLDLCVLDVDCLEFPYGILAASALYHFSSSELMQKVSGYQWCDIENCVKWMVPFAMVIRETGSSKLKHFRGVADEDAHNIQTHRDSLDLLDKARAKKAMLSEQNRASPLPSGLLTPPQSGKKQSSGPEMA
# Sequence (Q00526 whole entry, looked up): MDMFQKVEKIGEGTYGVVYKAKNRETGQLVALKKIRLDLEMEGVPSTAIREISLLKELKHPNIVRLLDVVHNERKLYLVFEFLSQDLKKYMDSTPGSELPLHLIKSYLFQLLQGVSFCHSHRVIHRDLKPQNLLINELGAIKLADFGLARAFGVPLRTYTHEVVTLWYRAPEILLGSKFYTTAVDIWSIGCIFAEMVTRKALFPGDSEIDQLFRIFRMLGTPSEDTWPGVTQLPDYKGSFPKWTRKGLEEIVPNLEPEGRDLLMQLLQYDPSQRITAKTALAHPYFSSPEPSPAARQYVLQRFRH
# experiment: radiometric filter-binding kinase assay, Kinase HotSpot
# conditionLabel: compound 0.5 µM; ATP 10 µM
Lab note: anything with residual activity at or over 90% counts as t; the rest go in f.

# querySmiles, classLabel
records = [
    ("COc1ccc(COc2ccc(Cc3cnc(N)nc3N)cc2OC)cc1", "f"),
]

Ask | Check if residual activity >= 90% (inclusive). Item: Oc1cccc(-c2nc(N3CCOCC3)c3oc4ncccc4c3n2)c1
Reply | t

Ask | Check if residual activity >= 90% (inclusive). Item: CCC(=O)Nc1ccc2ncnc(Nc3cccc(Br)c3)c2c1
Reply | f

Ask | Check if residual activity >= 90% (inclusive). Item: O=C(Nc1cccc(Nc2nccc(Nc3cccc(C(F)(F)F)c3)n2)c1)C1CC1
Reply | t

----------
# testedOn: MAPK13 (human)
# experiment: radiometric filter-binding kinase assay, Kinase HotSpot
# conditionLabel: compound 0.5 µM; ATP 10 µM
outcomeMeasure: residual activity (%)
The reply should contain only the number, in %.

# querySmiles, testedOn, residual activity [%]
measured = [
    ("Cc1ccc(Nc2nccc(N(C)c3ccc4c(C)n(C)nc4c3)n2)cc1S(N)(=O)=O", "MAPK13 (human)", 94.6),
]

Ask | For the molecule shown here, Oc1cccc(-c2nc(N3CCOCC3)c3oc4ncccc4c3n2)c1 , give the reported residual activity.
Reply | 97.4

Ask | For the molecule shown here, O=c1cc(N2CCOCC2)oc2c1ccc1ccccc12 , give the reported residual activity.
Reply | 99.8

Ask | For the molecule shown here, Nc1ncnc2c1c(-c1ccc(Oc3ccccc3)cc1)cn2C1CCCC1 , give the reported residual activity.
Reply | 95.3

Ask | For the molecule shown here, CC#CC(=O)Nc1cc2c(Nc3ccc(F)c(Cl)c3)ncnc2cn1 , give the reported residual activity.
Reply | 105

Ask | For the molecule shown here, CC[n+]1c(/C=C/N(C)c2ccccc2)n(-c2ccccc2)c2ccc(-c3nc4ccccc4s3)cc21 , give the reported residual activity.
Reply | 102

Ask | For the molecule shown here, CC(C)N(CCC(=O)c1ccc2ccccc2c1)Cc1ccccc1 , give the reported residual activity.
Reply | 96.2

Ask | For the molecule shown here, Cc1ccc(S(=O)(=O)/C=C/C#N)cc1 , give the reported residual activity.
Reply | 92.2

Ask | For the molecule shown here, COc1cc2ncnc(Nc3cccc(Cl)c3)c2cc1OC , give the reported residual activity.
Reply | 99.8

Ask | For the molecule shown here, O=C(Nc1cccc(Nc2nccc(Nc3cccc(C(F)(F)F)c3)n2)c1)C1CC1 , give the reported residual activity.
Reply | 99.6

Ask | For the molecule shown here, CCCC(=O)Oc1ccc2[nH]c(C(=O)c3cc4ccccc4[nH]3)cc2c1 , give the reported residual activity.
Reply | 103

The values you see were collected from the kinase profiling compilation of Christmann-Franck et al. (2016).
